Every entry's value here was drawn from patent US20240043427A1.

- Target Under Test: CD73 (Homo sapiens (Human), UniProt P21589)
- Sequence (P21589 27-574): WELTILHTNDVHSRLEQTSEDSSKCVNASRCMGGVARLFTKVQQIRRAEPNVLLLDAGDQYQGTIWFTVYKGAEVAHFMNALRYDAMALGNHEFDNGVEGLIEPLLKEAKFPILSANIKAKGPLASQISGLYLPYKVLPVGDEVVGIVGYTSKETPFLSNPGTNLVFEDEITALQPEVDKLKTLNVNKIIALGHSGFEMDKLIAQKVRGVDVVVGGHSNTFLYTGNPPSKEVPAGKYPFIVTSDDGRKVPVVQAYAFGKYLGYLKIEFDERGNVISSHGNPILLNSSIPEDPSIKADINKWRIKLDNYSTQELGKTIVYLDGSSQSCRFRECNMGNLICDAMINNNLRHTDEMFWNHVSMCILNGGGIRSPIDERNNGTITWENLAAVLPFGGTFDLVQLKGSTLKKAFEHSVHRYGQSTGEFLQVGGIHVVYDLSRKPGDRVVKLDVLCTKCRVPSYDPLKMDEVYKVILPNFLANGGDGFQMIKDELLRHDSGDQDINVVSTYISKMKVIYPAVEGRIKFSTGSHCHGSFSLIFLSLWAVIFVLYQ
- Experiment Summary: CD73 Biochemical IC50 Assay
- Condition Label: CD73 0.3 nM, AMP 15 uM, 25 mM Tris pH 7.4, 5 mM MgCl2
pIC50: −log10 of the molar value.
Value Type: pIC50

The examples below pair each entry with its known result.
>  <Compound>
O=c1[nH]cc(-c2cc(C3CC3)c3nc(-c4ccccn4)cn3n2)c(=O)[nH]1 [Example 103]

>  <pIC50>
7.15

$$$$
>  <Compound>
O=c1[nH]cc(-c2cc(C3CCC(F)(F)CC3)c3nccn3n2)c(=O)[nH]1 [Example 14]

>  <pIC50>
6.52

$$$$
>  <Compound>
O=c1[nH]cc(-c2cc([C@H]3C[C@@H]3c3ccc(C(F)(F)F)cc3)c3nccn3n2)c(=O)[nH]1 (racemic) [Example 42]

>  <pIC50>
7.54

$$$$
>  <Compound>
O=c1[nH]cc(-c2cc(C3CC3)c3nc(-c4ccccc4C(F)(F)F)cn3n2)c(=O)[nH]1 [Example 96]

>  <pIC50>
6.11

$$$$
>  <Compound>
O=c1[nH]cc(-c2cc(COCc3ccccc3)c3nccn3n2)c(=O)[nH]1 [Example 58]

>  <pIC50>
6.26

$$$$

P = O=c1[nH]cc(-c2cc(-c3ccc(NCC4CC4)cc3)c3nccn3n2)c(=O)[nH]1 [Example 71]
Q = O=c1[nH]cc(-c2cc(N3CCC(c4ccc(F)cc4)C3)c3nccn3n2)c(=O)[nH]1 (stereo in doubt) [Example 68]
R = CC1(C)CCN(c2cc(-c3c[nH]c(=O)[nH]c3=O)nn3ccnc23)CC1 [Example 89]
[Q] Thanks in advance: please rank these 3 entries by pIC50, highest to lowest. Answer format: the labels, ordered as requested.
[A] Q, R, P
